Target: WT Max (synthetic µMax scaffold) (UniProt P61244 22-102)
Sequence (P61244 22-102): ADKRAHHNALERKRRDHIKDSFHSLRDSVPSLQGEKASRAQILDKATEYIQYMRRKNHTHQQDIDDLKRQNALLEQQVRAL
Assay: BLI; EMSA: 10 mM MES pH 6.0, 150 mM KCl, 1 mM MgCl2, 10% glycerol, room temperature, 1 uM DNA; BLI: global 1:1 fit, buffer not in material
Conditions: chain copies: 2
Measured quantity: Kd (nM)
// units = nM; emit number, no label

Which Kd is reported for this binder? E-box DNA probe (dsDNA) DNA 1: CCGGCTGACACGTGGTATTAAT DNA 2: ATTAATACCACGTGTCAGCCGG
8.1
